Would you mind telling me the reported MEC of each entry?
molecular target: recombinant guanylate cyclase reporter cell line (Rattus norvegicus, UniProt P20595); construct: expressed in transfected cells; test: Effect on a recombinant guanylate cyclase reporter cell line; assay type: cell-based; conditions: minimum effective concentration
Sequence (P20595 whole entry): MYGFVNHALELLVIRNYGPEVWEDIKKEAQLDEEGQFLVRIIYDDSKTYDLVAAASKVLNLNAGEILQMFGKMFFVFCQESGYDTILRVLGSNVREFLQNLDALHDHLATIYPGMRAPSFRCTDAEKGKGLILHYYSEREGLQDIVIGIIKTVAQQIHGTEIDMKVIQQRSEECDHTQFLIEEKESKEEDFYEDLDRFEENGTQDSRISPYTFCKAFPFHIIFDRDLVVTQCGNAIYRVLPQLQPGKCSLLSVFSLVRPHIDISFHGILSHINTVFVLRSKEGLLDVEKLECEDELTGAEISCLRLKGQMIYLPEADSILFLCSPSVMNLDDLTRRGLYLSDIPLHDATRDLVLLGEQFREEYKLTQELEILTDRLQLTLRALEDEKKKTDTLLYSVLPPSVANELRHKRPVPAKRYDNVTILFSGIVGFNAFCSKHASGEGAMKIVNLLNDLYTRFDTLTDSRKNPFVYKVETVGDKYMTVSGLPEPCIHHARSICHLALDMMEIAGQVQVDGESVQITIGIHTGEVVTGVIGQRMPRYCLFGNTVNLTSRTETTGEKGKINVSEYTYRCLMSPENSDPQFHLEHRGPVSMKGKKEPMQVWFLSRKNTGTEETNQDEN
Sequence (P19686 whole entry partner): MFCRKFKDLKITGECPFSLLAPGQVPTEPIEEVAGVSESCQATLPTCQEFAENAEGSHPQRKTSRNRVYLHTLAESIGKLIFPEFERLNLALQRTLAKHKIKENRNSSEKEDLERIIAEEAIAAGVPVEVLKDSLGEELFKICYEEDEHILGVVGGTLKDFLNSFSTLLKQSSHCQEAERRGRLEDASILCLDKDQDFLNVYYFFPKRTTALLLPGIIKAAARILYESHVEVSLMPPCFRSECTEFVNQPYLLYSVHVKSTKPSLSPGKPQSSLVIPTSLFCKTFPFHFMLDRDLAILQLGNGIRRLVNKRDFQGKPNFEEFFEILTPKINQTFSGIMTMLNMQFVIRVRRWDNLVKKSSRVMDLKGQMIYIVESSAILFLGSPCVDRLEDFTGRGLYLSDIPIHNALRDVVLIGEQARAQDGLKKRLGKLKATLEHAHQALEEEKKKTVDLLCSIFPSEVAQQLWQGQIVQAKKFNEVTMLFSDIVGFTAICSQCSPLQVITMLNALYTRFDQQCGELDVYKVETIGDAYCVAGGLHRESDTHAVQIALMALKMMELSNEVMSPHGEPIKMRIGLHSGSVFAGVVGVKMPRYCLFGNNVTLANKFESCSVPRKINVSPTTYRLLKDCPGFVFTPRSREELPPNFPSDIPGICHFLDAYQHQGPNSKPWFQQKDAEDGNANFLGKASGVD
Give just the numeric value; nM need not be written.

The molecule O=C(O)c1cnn(C2CCCN(c3cc(Cl)ccc3-c3ccc(N4CCN(C[C@@H]5C[C@@H]5F)CC4)cc3)C2)c1C(F)F (single isomer, unassigned; stereoisomer 2) , when measured on recombinant guanylate cyclase reporter cell line (Rattus norvegicus, UniProt P20595), yielded MEC of 1.0

The molecule O=C(O)c1cnn(C2CCCN(c3cc(Cl)ccc3-c3ccc(N4CCN(CC5CCC5)CC4)cc3)C2)c1C(F)F (single isomer, unassigned; enantiomer 2) , when measured on recombinant guanylate cyclase reporter cell line (Rattus norvegicus, UniProt P20595), yielded MEC of 1.0

The molecule O=C(O)c1cnn(C2CCCN(c3cc(Cl)ccc3-c3ccc(N4CCN(C[C@H]5C[C@H]5F)CC4)cc3)C2)c1C(F)F (single isomer, unassigned; stereoisomer 2) , when measured on recombinant guanylate cyclase reporter cell line (Rattus norvegicus, UniProt P20595), yielded MEC of 1.0
